# Tested on: PPARg DBDmut IVT, anti-PPARg (DBD mutation: PPARg1 K132A/R137A, NR concentration 270 nM)
# Experimental details: PBM binding z-score (relative to random genomic background probes); higher = stronger binding; sequences stand for … in GC…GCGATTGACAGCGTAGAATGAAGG
Returns 1 if the recorded PBM binding z-score is greater than or equal to 0.2, and 0 otherwise.

| Ordered residues | Assigned label |
| --- | --- |
| TCTGCTAGGTCAACGATGGTGAGCTAATCTGCTA | 0 |
| TAGCCTAGGTCATTCAGGGCCCAGTATAGAAAGC | 0 |
| TCGAGTAAGTTAGGGGCATTCAGAATGGCGTCGA | 0 |
| GGAACGAGGGCATTCGAGTTGATAGCTTGGCGAT | 0 |
| ACTAGTTGGTCAGATGAGGTCACACACAATTCGG | 1 |
| CGAGACAGGTGAAAGGTAACTCAGTCTGGTACGC | 0 |
| CTACCAAGGGGAACAAGGTCGTTGATTACTATTC | 1 |
| GCTAGTTGGTCAGTAAAAGGTCACACTCCGGTCG | 1 |
| TATACAGGGGCAAAGGCCAGAGTACGAATGTCGA | 1 |
| TCGAGTAGGTTAGTCGGGGCAATCAGCCAACATA | 0 |
| AATACAGGGACACTAGGCCAGAGTAGGTACGAAT | 0 |
| TCATATAGGTAAACAGGTGAAAGTACGTAAGTTA | 1 |
| TAGCCTAGGTCATTGGCCAGTATACCACGCGAAC | 0 |
| GCTGCTAGGTCATCTGATGGTCAGCTAAAGCTCG | 0 |
| TCAGACACGTGAAGGTAACTCAGGTACGCAGTCG | 0 |
| TCATATAGCTAAAGGTGAAAGTCGAACGATATGA | 1 |
| CGTCCAAGGTCAACGTCAGTGAAAGAGACTCGAA | 0 |
| TCAGACAGGTCAAGGTAACTCAGGTACGCAGTCG | 1 |
| ATCGAAAGGTCGAAGGTGATTATACCCACCCGAA | 1 |
| GCTAGCAGGCCATTTGGGTCACGCAATGACGGGC | 0 |
| CCTACCGGGCCAAAAAGGTCATTGATGCCGATAA | 0 |
| ATCGAAAGGTCGTGAGGTGATTATACAGAAAGGC | 1 |
| AGAACGAGGTTATACGTAGATCAGGGAAGAAAGT | 1 |
| TTACCAAGGTGAAGATCGTTGATCCCTCTGTAGA | 0 |
| ACTATTAGTTGGCTTAGGGCAACCGATACGACGC | 1 |

====

# Tested on: VDR:RXRa (NR concentration 270 nM, RXRa partner concentration 90 nM)
# Experimental details: PBM binding z-score (relative to random genomic background probes); higher = stronger binding; sequences stand for … in GC…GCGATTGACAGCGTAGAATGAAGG
Returns Y if the recorded PBM binding z-score is greater than or equal to 1, and N otherwise.

| Ordered residues | Assigned label |
| --- | --- |
| GCTTGTAGATCAAGGTTAAGACAGACTAAGCTAA | N |
| AATACAGGGTCACTAGACCAGAGTAGGTACGAAT | Y |
| CCTACAGGGCCATTCAGAGGTCATTGATCATATG | Y |
| TCATGTAGATCAATAGAGGTTAAGAAAGTGCGCT | Y |
| CCTTACGGATCACTCCAGGTTATAGCATCGGAGT | N |
| TCTGCTAGGTCAGTTAGTCAGCTAACGAGCTGCC | N |
| TCTTGTAGATCAGCAGGTTACGAAAGCTGGCCAA | N |
| GCTATGAGTTGAAAGGGCAACCGAATGATTCTCG | Y |
| ATCTCTAGGTAACAAGATCAGTGAAAGAGAGGAC | N |
| GCTGGTAGGTCAACTGATGGTCAGCTAAAGCTCG | Y |
| CCTGCTAGGTCATGGTCAGCTAATCTACAGTATG | Y |
| AGAATGAGGATATACGTAGATCAGGGAAGAAAGT | N |
| ATCACTAGGTAAAGATAGTTCAGTGAATGCAAAT | N |
| CGGCAAAGTTCAAGGTAACGTAACAGAAAGCAGC | Y |
| CCGAATGGGGCATAAGGTTACCATAAGCCAGCCC | N |
| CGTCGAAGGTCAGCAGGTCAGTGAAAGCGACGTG | Y |
| AGTCAAGGTTCAGGACGAGGTAACGTAAAGCACG | Y |
| TAACCAAGGTGAAAGGTCGTTGATGCACGCCTTG | Y |
| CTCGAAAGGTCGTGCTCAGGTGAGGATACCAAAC | Y |
| CAAACTAGGTCACCGGAATGTCAAAGTCCGCATG | Y |
| CCTAGCAGGCCAATCTGGGTCACGCAAGGCTTGA | Y |
| TAGCCTAGGTCATTCAGAGGCCAGTATAGAAAGC | Y |
| CCTACTGGGCCAAGTTCATTGATCAGTCAAAGCA | Y |
| ATATGTAGGTTAAGAGTCATTCAGGTTGGTTCGC | Y |
| AGAATGAGGTTCAGATCAGGGAAACAGAATACAT | N |
| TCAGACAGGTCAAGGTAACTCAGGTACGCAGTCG | Y |
| CATACTGGGCCATTCAGAGGTCATTGATCATATG | Y |
| CCTACTGGGCCACGAAAGGACATTGATTCAGTGA | N |
| CATACAGGGTCAGCTAGGCCAGAATAGGGACGGC | Y |
| GAGACAGGGTCAGCTAGAGGCCAGAGTATGGAAA | Y |
| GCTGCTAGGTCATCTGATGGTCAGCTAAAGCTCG | Y |
| CGTCCAAGGTCAAAGGTAAGTGAAGAGATGACGG | Y |
| ATATGTAGGTTATATCCGGGTCATTCAGGCTATG | Y |
| CCTTACGGGTCACTGACAGGTTTTAGCATTTGGA | Y |
| CCTACTGGGCCATTCAAAGGTCATTGATCATATG | Y |
| TGAATGAGGTTAAAGATAAGGGAACGTGGCGTCG | Y |
| AGTCAAAGTTCAGGACGAGGTGACGTAAAGCACG | Y |
| ATCTCTAGGTGACCAAGTTCAGTGAATGCCGAAC | Y |
| ATTTGTAGGTTAAGGGTCATTCAGGTTGGTTCGC | Y |
| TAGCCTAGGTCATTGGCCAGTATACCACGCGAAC | Y |
| TCTGCTAGGTCATTTGGTCAGCTAACGAGCTGCC | Y |
| TGAATGAGGTTAGAAGATCAGGGAACGTTGCAAA | N |
| ATATGTAGGTTACACCCGGGTCATTCAGGCTATG | Y |
| CCGACTGGGGCAAGCTTACCATAACGCACAGCCA | N |
| TGAATGAGGTTATAGGATCAGGGAACGTTGCAAA | Y |
| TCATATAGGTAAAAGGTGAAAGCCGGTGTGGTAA | Y |
| CCTACTGGGCCAAGGTCATTTATCAGTCAAAGCA | Y |
| ATATGTAGGTTACTTCCGGGTCATTCAGGCTATG | Y |
| AGAATGAGGTTATACGTAGCTCAGGGAAGAAAGT | Y |

====

# Test system: PPARg:RXRa IVT, anti-PPARg (NR concentration 270 nM, RXRa partner concentration 90 nM)
# Experimental details: PBM binding z-score (relative to random genomic background probes); higher = stronger binding; sequences stand for … in GC…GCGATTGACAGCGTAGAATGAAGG
As shown below, each of these sequences has a reported PBM binding z-score value.

| Ordered residues | PBM binding z-score |
| --- | --- |
| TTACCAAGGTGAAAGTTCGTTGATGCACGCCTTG | 4.23 |
| CCTTACGGGTCACTGACAGGTTATAGCATTTGGA | 3.75 |
| TCTTGTAGACCAAGCAGGTTAAGAAAGCCTGAGT | 0.677 |
| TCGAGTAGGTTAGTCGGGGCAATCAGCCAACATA | 2.34 |
| CGTGCAAGGTCAATGCTAGGTCAGTGAAAGCATT | 4.08 |
| CCTGCTAGGTCAATGGTCAGGTAAAGCAGCTCGC | 4.23 |
| TCTATTAGTTGATTAGGGCAACCGTAACAGCGGA | 1.65 |
| ATCTCTAGGTAAACTTCAGTGAAAGATCGATAGA | 2.02 |
| GCAGAAAGGTGAAACGCAGGTAACTCAGGGTGGC | 2.42 |
| CCGAGTAGGTAATGGGGCATTCAGGCAACGGTGA | 3.08 |
| TCTTGTAGATCATGCAGGTTAAGAAAGCCTGAGT | 0.879 |
| GATACAGCGTCAGCTAGAGGCCAGAGTATGGAAA | -0.61 |
